tested on: U251 CNS; experiment: NCI tumour cell line growth inhibition, 48 h
quantityName: TGI (µM)
Write the answer as a number in µM, unit excluded.

# molecule, TGI (µM)
data = [
    ("O=c1c(O)cc2c(O)oc3c(=O)c(O)c(O)c4c(O)oc1c2c43", 34.3),
]

Let us move to another entry and its TGI.
QUERY: Value lookup for TGI; key = CCCCCCCC(CC(=O)NC(CO)C(=O)NC(CO)CC(C)C)OC(=O)CC(CCCCCCC)OC(=O)CC(CCCCCCC)OC1OC(C)C(O)C(OC2OC(C)C(O)C(O)C2O)C1O (stereo not given)
RESULT: 24.7
